meta.source: ChEMBL document CHEMBL4715687

# measurement.notes: Inhibition of CutC in Escherichia coli MS 200-1 assessed as reduction in d9-TMA formation using d9-choline chloride as substrate incubated for 4 hrs under anaerobic condition by LC-MS-MS analysis
measurement.kind: pEC50
Would you please state pEC50, meaning minus log10 of the concentration in mol/L, as a bare number?

Consider `CN1CCC(NC(=O)NCCNc2ccccn2)CC1` . Its measured pEC50 is 3.45

Lab book: pEC50 of `Cn1c(N)nc2c(ncn2[C@@H]2O[C@H](CO)[C@@H](O)[C@H]2O)c1=O` noted as 3.76

Value of measured pEC50 for the entry CC(O)CNC(=O)NC1CCN(Cc2ccccn2)CC1 (stereo unspecified) : 4.06

Just so you know, measured pEC50 for O=C(NCc1nc(-c2ccccc2)n[nH]1)NC1CCC(O)CC1 (stereo unspecified) came out at 4.10

Lab book: pEC50 of `CC(C)Nc1cccc(C(=O)NCCCN2CCC(O)CC2)c1` noted as 3.42
